- protocol-text: First-in-human Part 2 multiple ascending dose q.d. blood and urine PK
- Assay type: in vivo
- protocol-conditions: human, blood, oral, 10 mg, 10 mg qd, Day 12, blood; Median (Min-Max); read-out: Vss/F
assay-endpoint: Vd/F (L)
Numbers only, in L.

Input line: Indicate its recorded Vd/F; the compound in question is C=CC(=O)N(C)CCOc1c(N)ncnc1-c1cc(F)cc(NC(=O)c2ccc(C3CC3)cc2F)c1C
Output line: 562

* * *

- protocol-text: First-in-human Part 2 multiple ascending dose q.d. blood and urine PK
- Format: in vivo
- protocol-conditions: human, blood, oral, 25 mg, 25 mg qd, Day 1, blood; Mean ± SD; read-out: AUC0-24
assay-endpoint: AUC(0-t)
Quick note: unit goes after the number.

Input line: Specify AUC(0-t) for C=CC(=O)N(C)CCOc1c(N)ncnc1-c1cc(F)cc(NC(=O)c2ccc(C3CC3)cc2F)c1C and stop.
Output line: 0.0449 µg·h/mL
